Target: T1, Human PD-1-His protein (Cat. #10377H08H, Sino Biological) (human, UniProt Q15116 25-167)
T1 construct: Bought protein; also called hPD-1-His; hu PD-1-his; not shown: His tag of the bought protein
T1 sequence (Q15116 25-167 limits assumed): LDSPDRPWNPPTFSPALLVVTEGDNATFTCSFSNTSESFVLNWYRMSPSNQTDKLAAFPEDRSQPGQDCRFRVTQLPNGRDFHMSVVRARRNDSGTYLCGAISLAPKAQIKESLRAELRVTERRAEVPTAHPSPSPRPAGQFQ
Test: SPR (Biacore), antibody captured on Protein A chip, PD-1 in flow
Could you please report measured koff for the items listed next?
Give bare numbers, in s⁻¹.

In the examples that follow, each entry is paired with its recorded koff.
Hu23-11.IgG4AA (antibody, V domains shown, Full-length IgG4-AA, kappa; also called Hu23LCDR1 (N28T)) VH: EVQLVQSGAEVKKPGSSVKVSCKASGGTFSDYEMHWVRQAPGQGLEWMGLIDPETGGTVYNQKFKDRVTITADKSTSTAYMELSSLRSEDTAVYYCARERFSYYGSTSDWYFDVWGQGTTVTVSS VL: DIVMTQTPLSLPVTPGEPASISCRSSQSLVHSTGNTYLEWYLQKPGQSPQLLIYKVSNRFSGVPDRFSGSGSGTDFTLKISRVEAEDVGVYYCFQGSHVPYTFGGGTKVEIKR	0.000114
murine antibody M23 (antibody, V domains shown) VH: QVQLQQSGAELVRPGASVTLSCKASGYTFTDYEMHWVKQTPIHGLEWIGLIDPETGGTVYNQKFKDKTILTADKSSSTAYMEFRSLTSEDSAVYHCTRERFSYYGSTSDWYFDVWGTGTTVTVSS VL: DGLMTQTPLSLPVSLGDHASISCRSSQSLVHSNGNTYLEWYLQKPGQSPKLLIYKVSNRFSGVPDRFSGSGSGTDFTLKISRVEAEDLGIYYCFQGSHVPYTFGGGTKLEIK	0.000132
Hu32a-43.IgG4AA (antibody, V domains shown, Full-length IgG4-AA, kappa) VH: EVQLVQSGAEVKKPGSSVKVSCKASDFTFSDYEIHWVRQAPGQGLEWMGLFDPETGGIVYNQKFKGRVTLTADKSTSTAYMELSSLRSEDTAVYYCTREGYNRDWYFDVWGQGTTVTVSS VL: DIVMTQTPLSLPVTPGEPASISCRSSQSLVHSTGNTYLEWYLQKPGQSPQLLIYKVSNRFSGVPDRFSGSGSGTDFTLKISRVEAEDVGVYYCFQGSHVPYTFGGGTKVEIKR	0.000685

**Query** Bench note: what koff did murine antibody M32 (antibody, V domains shown) VH: QVQLQQSGAELVRPGASVTLSCKASDFTFTDYEIHWVKQTPVHGLEWIGLFDPETGGIVYNQKFKGKAILTADKSSNTAYMEFRSLTSEDSAVYYCTREGYNRDWYFDVWGTGTTVTVSS VL: DVLMTQTPLSLPVSLGDQASISCRSSQSIVHSNGNTYLEWYLQKPGQSPKLLIYKVSNRFSGVPDRFSGSGSGTDFTLKISRVEAEDLGIYYCFQGSHVPYAFGGGTKLEIK show?
**Result** 0.000415
